Source: PubChem BioAssay AID1963970

System: 931267-113-T-J1-PDC multicell spheroid viability
Assay: Anticancer human tumor 931267-113-T-J1-PDC patient-derived colon adenocarcinoma cell line growth inhibition [PI3K]
Conditions: second compound 0.0316 µM; first compound 0.01 µM; stronger effect = lower value
Checkbox rule: viability, T/C lower than 90% = 1; viability, T/C not lower than 90% = 0.

CCN1CCN(Cc2ccc(Nc3ncc(F)c(-c4cc(F)c5nc(C)n(C(C)C)c5c4)n3)nc2)CC1 + COc1c(OCCCN2CCOCC2)ccc2c3n(c(=NC(=O)c4cnc(N)nc4)nc12)CCN3	1
CC(=O)c1c(C)c2cnc(Nc3ccc(N4CCNCC4)cn3)nc2n(C2CCCC2)c1=O + CC(Nc1ccc2c(c1)OCCn1cc(N3C(=O)OCC3C(F)F)nc1-2)C(N)=O	0
CCN1CCN(Cc2ccc(Nc3ncc(F)c(-c4cc(F)c5nc(C)n(C(C)C)c5c4)n3)nc2)CC1 + CC(Nc1ccc2c(c1)OCCn1cc(N3C(=O)OCC3C(F)F)nc1-2)C(N)=O	0
CC(=O)c1c(C)c2cnc(Nc3ccc(N4CCNCC4)cn3)nc2n(C2CCCC2)c1=O + CC(Nc1ncnc2nc[nH]c12)c1cc2cccc(Cl)c2c(=O)n1-c1ccccc1	0
Cn1ncnc1[C@H]1c2n[nH]c(=O)c3cc(F)cc(c23)N[C@@H]1c1ccc(F)cc1 + CC(Nc1ccc2c(c1)OCCn1cc(N3C(=O)OCC3C(F)F)nc1-2)C(N)=O	0
CC(=O)c1c(C)c2cnc(Nc3ccc(N4CCNCC4)cn3)nc2n(C2CCCC2)c1=O + COc1c(OCCCN2CCOCC2)ccc2c3n(c(=NC(=O)c4cnc(N)nc4)nc12)CCN3	1
CC(C)n1nc(-c2ccc3oc(N)nc3c2)c2c(N)ncnc21 + COc1c(OCCCN2CCOCC2)ccc2c3n(c(=NC(=O)c4cnc(N)nc4)nc12)CCN3	1
Cn1ncnc1[C@H]1c2n[nH]c(=O)c3cc(F)cc(c23)N[C@@H]1c1ccc(F)cc1 + COc1c(OCCCN2CCOCC2)ccc2c3n(c(=NC(=O)c4cnc(N)nc4)nc12)CCN3	1
Cn1ncnc1[C@H]1c2n[nH]c(=O)c3cc(F)cc(c23)N[C@@H]1c1ccc(F)cc1 + CC(Nc1ncnc2nc[nH]c12)c1cc2cccc(Cl)c2c(=O)n1-c1ccccc1	0
CCN1CCN(Cc2ccc(Nc3ncc(F)c(-c4cc(F)c5nc(C)n(C(C)C)c5c4)n3)nc2)CC1 + Cc1nc(NC(=O)N2CCCC2C(N)=O)sc1-c1ccnc(C(C)(C)C(F)(F)F)c1	0
CCN1CCN(Cc2ccc(Nc3ncc(F)c(-c4cc(F)c5nc(C)n(C(C)C)c5c4)n3)nc2)CC1 + CC(Nc1ncnc2nc[nH]c12)c1cc2cccc(Cl)c2c(=O)n1-c1ccccc1	0
CC(C)n1nc(-c2ccc3oc(N)nc3c2)c2c(N)ncnc21 + Cc1nc(NC(=O)N2CCCC2C(N)=O)sc1-c1ccnc(C(C)(C)C(F)(F)F)c1	0
Cn1ncnc1[C@H]1c2n[nH]c(=O)c3cc(F)cc(c23)N[C@@H]1c1ccc(F)cc1 + Cc1nc(NC(=O)N2CCCC2C(N)=O)sc1-c1ccnc(C(C)(C)C(F)(F)F)c1	0

---

System: 931267-113-T-J1-PDC multicell spheroid viability
Test: Anticancer human tumor 931267-113-T-J1-PDC cell line growth inhibition [PI3K];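 also: viability read 7 days after compound addition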
Details: second compound 0.1 µM; first compound 0.001 µM; stronger effect = lower value
Checkbox rule: viability, T/C lower than 90% = Criterion met; viability, T/C not lower than 90% = Criterion not met.

Cn1ncnc1[C@H]1c2n[nH]c(=O)c3cc(F)cc(c23)N[C@@H]1c1ccc(F)cc1 + CC(Nc1ncnc2nc[nH]c12)c1cc2cccc(Cl)c2c(=O)n1-c1ccccc1	Criterion not met
CC(=O)c1c(C)c2cnc(Nc3ccc(N4CCNCC4)cn3)nc2n(C2CCCC2)c1=O + CC(Nc1ccc2c(c1)OCCn1cc(N3C(=O)OCC3C(F)F)nc1-2)C(N)=O	Criterion not met
CC(C)n1nc(-c2ccc3oc(N)nc3c2)c2c(N)ncnc21 + CC(Nc1ncnc2nc[nH]c12)c1cc2cccc(Cl)c2c(=O)n1-c1ccccc1	Criterion not met
CC(=O)c1c(C)c2cnc(Nc3ccc(N4CCNCC4)cn3)nc2n(C2CCCC2)c1=O + COc1c(OCCCN2CCOCC2)ccc2c3n(c(=NC(=O)c4cnc(N)nc4)nc12)CCN3	Criterion met
CC(C)n1nc(-c2ccc3oc(N)nc3c2)c2c(N)ncnc21 + CC(Nc1ccc2c(c1)OCCn1cc(N3C(=O)OCC3C(F)F)nc1-2)C(N)=O	Criterion met
Cn1ncnc1[C@H]1c2n[nH]c(=O)c3cc(F)cc(c23)N[C@@H]1c1ccc(F)cc1 + Cc1nc(NC(=O)N2CCCC2C(N)=O)sc1-c1ccnc(C(C)(C)C(F)(F)F)c1	Criterion not met
Cn1ncnc1[C@H]1c2n[nH]c(=O)c3cc(F)cc(c23)N[C@@H]1c1ccc(F)cc1 + COc1c(OCCCN2CCOCC2)ccc2c3n(c(=NC(=O)c4cnc(N)nc4)nc12)CCN3	Criterion met
CC(C)n1nc(-c2ccc3oc(N)nc3c2)c2c(N)ncnc21 + COc1c(OCCCN2CCOCC2)ccc2c3n(c(=NC(=O)c4cnc(N)nc4)nc12)CCN3	Criterion met
CC(=O)c1c(C)c2cnc(Nc3ccc(N4CCNCC4)cn3)nc2n(C2CCCC2)c1=O + CC(Nc1ncnc2nc[nH]c12)c1cc2cccc(Cl)c2c(=O)n1-c1ccccc1	Criterion not met

---

Tested on: 931267-113-T-J1-PDC multicell spheroid viability
Experiment: Anticancer human tumor 931267-113-T-J1-PDC cell line growth inhibition [PI3K];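 also: viability read 7 days after compound addition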
Details: curve of first compound; second compound 0.01 µM
pIC50: −log10 of the molar value.
Attribute: pIC50
observed.property: pIC50

C#Cc1c(F)ccc2cc(O)cc(-c3ncc4c(N5CC6CCC(C5)N6)nc(OCC56CCCN5CC(F)C6)nc4c3F)c12 (stereo not given) + CC(Nc1ccc2c(c1)OCCn1cc(N3C(=O)OCC3C(F)F)nc1-2)C(N)=O	6.38
Cn1nccc1Nc1nccc(-c2ccn(C(CO)c3ccc(Cl)c(F)c3)c(=O)c2)n1 (stereo not given) + COc1c(OCCCN2CCOCC2)ccc2c3n(c(=NC(=O)c4cnc(N)nc4)nc12)CCN3	5.56
C#Cc1c(F)ccc2cc(O)cc(-c3ncc4c(N5CC6CCC(C5)N6)nc(OCC56CCCN5CC(F)C6)nc4c3F)c12 (stereo not given) + COc1c(OCCCN2CCOCC2)ccc2c3n(c(=NC(=O)c4cnc(N)nc4)nc12)CCN3	6.62
CCCS(=O)(=O)Nc1ccc(F)c(C(=O)c2c[nH]c3ncc(-c4ccc(Cl)cc4)cc23)c1F + CC(Nc1ccc2c(c1)OCCn1cc(N3C(=O)OCC3C(F)F)nc1-2)C(N)=O	5.20
CC1(C)CCC(CN2CCN(c3ccc(C(=O)NS(=O)(=O)c4ccc(NCC5CCOCC5)c([N+](=O)[O-])c4)c(Oc4cnc5[nH]ccc5c4)c3)CC2)=C(c2ccc(Cl)cc2)C1 + CC(Nc1ccc2c(c1)OCCn1cc(N3C(=O)OCC3C(F)F)nc1-2)C(N)=O	5.20

---

Tested on: 931267-113-T-J1-PDC multicell spheroid viability
Assay: Anticancer human tumor 931267-113-T-J1-PDC cell line growth inhibition [PI3K];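 also: viability read 7 days after compound addition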
Conditions: second compound 0.0316 µM; first compound 1 µM; stronger effect = lower value
observed.property: viability, T/C

CC1(C)CCC(CN2CCN(c3ccc(C(=O)NS(=O)(=O)c4ccc(NCC5CCOCC5)c([N+](=O)[O-])c4)c(Oc4cnc5[nH]ccc5c4)c3)CC2)=C(c2ccc(Cl)cc2)C1 + Cc1nc(NC(=O)N2CCCC2C(N)=O)sc1-c1ccnc(C(C)(C)C(F)(F)F)c1	108%
C#Cc1c(F)ccc2cc(O)cc(-c3ncc4c(N5CC6CCC(C5)N6)nc(OCC56CCCN5CC(F)C6)nc4c3F)c12 (centres undefined) + Cc1nc(NC(=O)N2CCCC2C(N)=O)sc1-c1ccnc(C(C)(C)C(F)(F)F)c1	40%
Cn1nccc1Nc1nccc(-c2ccn(C(CO)c3ccc(Cl)c(F)c3)c(=O)c2)n1 (centres undefined) + CC(Nc1ccc2c(c1)OCCn1cc(N3C(=O)OCC3C(F)F)nc1-2)C(N)=O	74.3%
CCCS(=O)(=O)Nc1ccc(F)c(C(=O)c2c[nH]c3ncc(-c4ccc(Cl)cc4)cc23)c1F + CC(Nc1ncnc2nc[nH]c12)c1cc2cccc(Cl)c2c(=O)n1-c1ccccc1	125%
CCN1CCN(Cc2ccc(Nc3ncc(F)c(-c4cc(F)c5nc(C)n(C(C)C)c5c4)n3)nc2)CC1 + CC(Nc1ccc2c(c1)OCCn1cc(N3C(=O)OCC3C(F)F)nc1-2)C(N)=O	70.2%
CC(C)NCC(C(=O)N1CCN(c2ncnc3c2C(C)CC3O)CC1)c1ccc(Cl)cc1 (centres undefined) + CC(Nc1ccc2c(c1)OCCn1cc(N3C(=O)OCC3C(F)F)nc1-2)C(N)=O	94.8%
Cn1nccc1Nc1nccc(-c2ccn(C(CO)c3ccc(Cl)c(F)c3)c(=O)c2)n1 (centres undefined) + COc1c(OCCCN2CCOCC2)ccc2c3n(c(=NC(=O)c4cnc(N)nc4)nc12)CCN3	55.6%
CCCS(=O)(=O)Nc1ccc(F)c(C(=O)c2c[nH]c3ncc(-c4ccc(Cl)cc4)cc23)c1F + Cc1nc(NC(=O)N2CCCC2C(N)=O)sc1-c1ccnc(C(C)(C)C(F)(F)F)c1	131%
C=CC(=O)N1CCN(c2nc(=O)n(-c3c(C)ccnc3C(C)C)c3nc(-c4c(O)cccc4F)c(F)cc23)C(C)C1 (centres undefined) + CC(Nc1ccc2c(c1)OCCn1cc(N3C(=O)OCC3C(F)F)nc1-2)C(N)=O	109%
